# assayed_system: NAD(+) hydrolase SARM1 (Homo sapiens) (UniProt Q6SZW1)
# Sequence (Q6SZW1 whole entry, looked up): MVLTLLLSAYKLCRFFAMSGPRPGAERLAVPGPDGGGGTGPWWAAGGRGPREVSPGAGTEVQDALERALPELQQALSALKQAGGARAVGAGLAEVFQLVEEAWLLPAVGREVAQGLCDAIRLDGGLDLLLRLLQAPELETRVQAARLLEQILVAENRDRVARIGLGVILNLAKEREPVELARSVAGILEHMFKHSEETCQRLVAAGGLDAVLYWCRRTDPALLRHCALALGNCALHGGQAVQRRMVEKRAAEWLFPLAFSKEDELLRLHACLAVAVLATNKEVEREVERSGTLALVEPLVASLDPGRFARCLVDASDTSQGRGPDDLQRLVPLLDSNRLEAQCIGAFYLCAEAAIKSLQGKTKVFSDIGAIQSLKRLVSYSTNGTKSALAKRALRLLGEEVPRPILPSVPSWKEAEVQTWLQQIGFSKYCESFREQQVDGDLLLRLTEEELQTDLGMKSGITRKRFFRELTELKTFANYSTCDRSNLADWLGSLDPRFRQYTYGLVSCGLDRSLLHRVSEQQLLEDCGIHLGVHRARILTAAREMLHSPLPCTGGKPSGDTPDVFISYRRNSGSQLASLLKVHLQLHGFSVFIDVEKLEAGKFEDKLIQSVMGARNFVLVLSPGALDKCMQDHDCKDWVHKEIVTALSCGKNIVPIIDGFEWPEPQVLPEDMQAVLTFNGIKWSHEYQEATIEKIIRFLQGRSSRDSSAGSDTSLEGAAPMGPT
# protocol_notes: SARM1 TIR NADase inhibitors, cell lysate, NAD-Glo luminescence (AID 1508614);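 further: higher remaining NAD means stronger inhibition of SARM1 NADase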
# condition_label: SAM-TIR HEK293T lysate NADase, at 1 µM
Activity calls are given as the source filed them.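 How the source made its calls: active means compound whose remaining NAD level is above about 45 nM (limit read from the data); inactive means the rest.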
Tick one outcome: True (active), False (inactive)

Q) How did this test come out for NCCNCCNCCN ?
A) False

Q) Dear colleague, could you share the recorded outcome for CC(=O)Nc1ccc(OC(=O)c2ccccc2O)cc1 when you have a moment?
A) False

Q) Outcome? CCCC1O[C@@H]2C[C@H]3[C@@H]4CCC5=CC(=O)C=C[C@]5(C)[C@H]4[C@@H](O)C[C@]3(C)[C@]2(C(=O)CO)O1 (stereo partly specified)
A) False

Q) What did this assay record as the result for C#C[C@]1(O)CC[C@H]2[C@@H]3CCC4=C(CCC(=O)C4)[C@H]3CC[C@@]21C ?
A) False

Q) Which outcome did this test record for the molecule CCCCCCCCCCOc1cc2c(=O)c(C(=O)OCC)c[nH]c2cc1OCC ?
A) False

Q) Please share the test call associated with Oc1c(I)cc(Cl)c2cccnc12 .
A) False

Q) Any idea what this test logged for CC(=O)N(CC(O)CN(C(C)=O)c1c(I)c(C(=O)NCC(O)CO)c(I)c(C(=O)NCC(O)CO)c1I)c1c(I)c(C(=O)NCC(O)CO)c(I)c(C(=O)NCC(O)CO)c1I (stereo unspecified) ?
A) False

Q) Please let me know the test result on file for CN1C(=O)OC(C)(C)C1=O .
A) False

Q) What outcome does the record of this test show for COc1ccc(Cc2cnc(N)nc2N)cc1OC ?
A) False

Q) For O=S(=O)(O)c1cc(I)c(O)c2ncccc12 , which call appears in the assay record?
A) False

Q) How was CC1=C(/C=C/C(C)=C/C=C/C(C)=C/CO)C(C)(C)CCC1 classified in this test?
A) False

Q) For O=C(Nc1ccc(C(=O)O)c(O)c1)c1ccccc1 , what call appears in the results of this test?
A) False

Q) What call does the record list for NC[C@H]1O[C@H](O[C@H]2[C@H](O[C@@H]3O[C@H](CO)[C@@H](O)[C@H]3O)[C@@H](O)[C@H](N)C[C@@H]2N)[C@H](N)[C@@H](O)[C@@H]1O ?
A) False

Q) Hi, do you know how NCCc1cnc[nH]1 came out in this test?
A) False

Q) What outcome does the record of this test show for NC(=O)c1ccc[n+]([C@@H]2O[C@H](COP(=O)([O-])OP(=O)(O)OC[C@H]3O[C@@H](n4cnc5c(N)ncnc54)[C@H](O)[C@@H]3O)[C@@H](O)[C@H]2O)c1 ?
A) True

Q) Outcome? COc1c2occc2cc2ccc(=O)oc12
A) False

Q) Please share the test call associated with Cc1c(C)c2c(c(C)c1O)CC[C@@](C)(CCC[C@H](C)CCC[C@H](C)CCCC(C)C)O2 .
A) False

Q) # fetch the recorded call for O=C(OOC(=O)c1ccccc1)c1ccccc1 here
A) False

Q) What did the test return for CNCCCN1c2ccccc2CCc2ccccc21 ?
A) False

Q) Returns: the outcome recorded for CC(S)C(=O)NCC(=O)O (stereo unspecified) in this assay.
A) False

Q) What did this assay record as the result for COc1cccc2c1C(=O)c1c(O)c3c(c(O)c1C2=O)C[C@@](O)(C(C)=O)C[C@@H]3O[C@H]1C[C@H](N)[C@H](O)[C@H](C)O1 ?
A) False
